test system: 616215-338-R-J1-PDC spheroids with HUVEC/MSC, viability; test: Anticancer human tumor 616215-338-R-J1-PDC patient-derived colon adenocarcinoma cell line growth inhibition [PI3K]; conditions: compound 0.00316 µM; hits give low values
In this section, each of the compounds is paired with its reported viability, T/C.
property measured: viability, T/C

{"columns": ["compound", "property measured", "endpoint result"],
 "data": [
  ["CCN1CCN(Cc2ccc(Nc3ncc(F)c(-c4cc(F)c5nc(C)n(C(C)C)c5c4)n3)nc2)CC1", "viability, T/C", "98.2% [middle of 4 runs]"],
  ["CC(=O)c1c(C)c2cnc(Nc3ccc(N4CCNCC4)cn3)nc2n(C2CCCC2)c1=O", "viability, T/C", "98.5% [middle of 4 runs]"],
  ["Cn1ncnc1[C@H]1c2n[nH]c(=O)c3cc(F)cc(c23)N[C@@H]1c1ccc(F)cc1", "viability, T/C", "100% [middle of 4 runs]"],
  ["COc1c(OCCCN2CCOCC2)ccc2c3n(c(=NC(=O)c4cnc(N)nc4)nc12)CCN3", "viability, T/C", "93.2% [middle of 8 runs]"],
  ["CC(C)n1nc(-c2ccc3oc(N)nc3c2)c2c(N)ncnc21", "viability, T/C", "100% [middle of 4 runs]"],
  ["CC(Nc1ccc2c(c1)OCCn1cc(N3C(=O)OCC3C(F)F)nc1-2)C(N)=O (stereo unspecified)", "viability, T/C", "94.5% [middle of 8 runs]"]
]}

* * *

system: 616215-338-R-J1-PDC spheroids with HUVEC/MSC, viability; assay: Anticancer human tumor 616215-338-R-J1-PDC cell line growth inhibition [PI3K]; settings: second compound 1 µM; first compound 0.1 µM; hits give low values;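 also: spheroids exposed to agents for seven days before the viability read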
This listing pairs molecules with measured viability, T/C.
property measured: viability, T/C (%)

{"columns": ["molecule", "property measured", "endpoint result"],
 "data": [
  ["CC1(C)CCC(Nc2ncc(C(F)(F)F)c(-c3c[nH]c4c(P(C)(C)=O)c(C#N)ccc34)n2)CN1 (stereo not given) + COc1c(OCCCN2CCOCC2)ccc2c3n(c(=NC(=O)c4cnc(N)nc4)nc12)CCN3", "viability, T/C", 19.6],
  ["Cn1ncc(Cl)c1-c1cc(C(=O)NC(CN)Cc2cccc(F)c2)sc1Cl (stereo not given) + COc1c(OCCCN2CCOCC2)ccc2c3n(c(=NC(=O)c4cnc(N)nc4)nc12)CCN3", "viability, T/C", 28.2],
  ["CC(C)NCC(C(=O)N1CCN(c2ncnc3c2C(C)CC3O)CC1)c1ccc(Cl)cc1 (stereo not given) + Cc1nc(NC(=O)N2CCCC2C(N)=O)sc1-c1ccnc(C(C)(C)C(F)(F)F)c1", "viability, T/C", 97.6],
  ["C#Cc1c(F)ccc2cc(O)cc(-c3ncc4c(N5CC6CCC(C5)N6)nc(OCC56CCCN5CC(F)C6)nc4c3F)c12 (stereo not given) + Cc1nc(NC(=O)N2CCCC2C(N)=O)sc1-c1ccnc(C(C)(C)C(F)(F)F)c1", "viability, T/C", 101],
  ["Cn1ncc(Cl)c1-c1cc(C(=O)NC(CN)Cc2cccc(F)c2)sc1Cl (stereo not given) + Cc1nc(NC(=O)N2CCCC2C(N)=O)sc1-c1ccnc(C(C)(C)C(F)(F)F)c1", "viability, T/C", 92.9]
]}
